test: Oral bioavailability
Assay type: ADME, organism-based
setup-conditions: eutheria, in vivo
quantity: bioavailability

Give me measured bioavailability, please, for this compound: CC(C)(C)c1ccc(C(Cc2ccc(C(=O)NCCC(=O)O)cc2)C(=O)Nc2ccc(-c3cc4ccccc4o3)cc2)cc1 (stereo unspecified)
< 5%

====

assayed-system: Adenylate cyclase
test: In vitro inhibitory activity against glucagon induced human adenylate cyclase
Type: protein assay
Measured Ki accompanies every entry in the list below.
Enter your answer as a number in nM; do not include the unit.

CC(C)(C)c1ccc(C(Cc2ccc(C(=O)NCCC(=O)O)cc2)C(=O)Nc2ccc(-c3cc4ccccc4o3)cc2)cc1 (stereo unspecified)
29
CCCCCCC(Cc1ccc(C(=O)NCCC(=O)O)cc1)C(=O)Nc1ccc(-c2cc3ccccc3o2)cc1 (stereo unspecified)
20
CC(C)(C)c1ccc(C(Cc2ccc(C(=O)NCCC(=O)O)cc2)C(=O)Nc2ccc(-c3ccc(Cl)cc3Cl)cc2)cc1 (stereo unspecified)
33
CC(C)(C)c1ccc(C(Cc2ccc(C(=O)NCCC(=O)O)cc2)C(=O)Nc2ccc(CO)cc2)cc1 (stereo unspecified)
1000
CCCCCCC(Oc1ccc(C(=O)NCCC(=O)O)cc1)C(=O)Nc1ccc(-c2cc3ccccc3o2)cc1 (stereo unspecified)
17

Give me measured Ki, please, for this compound: CC(C)(C)c1ccc(C(Cc2ccc(C(=O)NCCC(=O)O)cc2)C(=O)Nc2ccc(OC(F)(F)F)cc2)cc1 (stereo unspecified)
110

Give me measured Ki, please, for this compound: CC(C)(C)c1ccc(C(Cc2ccc(C(=O)NCCC(=O)O)cc2)C(=O)Nc2ccc(-c3ccccc3)cc2)cc1 (stereo unspecified)
300

Give me measured Ki, please, for this compound: CC(C)(C)c1ccc(C(Oc2ccc(C(=O)NCCC(=O)O)cc2)C(=O)Nc2ccc(-c3ccccc3)cc2)cc1 (stereo unspecified)
144

Give me measured Ki, please, for this compound: CC(C)(C)c1ccc(C(Cc2ccc(C(=O)NCCC(=O)O)cc2)C(=O)Nc2cnc3ccccc3c2)cc1 (stereo unspecified)
610

Give me measured Ki, please, for this compound: `CC(C)(C)[C@H]1CC[C@H](N(Cc2ccc(C(=O)NCCC(=O)O)cc2)C(=O)Nc2ccc(OC(F)(F)F)cc2)CC1`
254

Give me measured Ki, please, for this compound: CC(C)(C)c1ccc(C(Oc2ccc(C(=O)Nc3nn[nH]n3)cc2)C(=O)Nc2ccc(-c3ccccc3)cc2)cc1 (stereo unspecified)
317

Give me measured Ki, please, for this compound: CCCCCCC(Oc1ccc(C(=O)NCCC(=O)O)cc1)C(=O)Nc1ccc(-c2ccc(Cl)cc2Cl)cc1 (stereo unspecified)
14

====

Reported pKi for target or system Glucagon receptor (Homo sapiens, UniProt P47871), by entry.
# reply with the number alone; pKi is -log10 of concentration in mol/L

Give me measured pKi, please, for this compound: CC(C)(C)c1ccc(C(Cc2ccc(C(=O)NCCC(=O)O)cc2)C(=O)Nc2ccc(OC(F)(F)F)cc2)cc1 (centres undefined)
7.29

Give me measured pKi, please, for this compound: CC(C)(C)c1ccc(C(Oc2ccc(C(=O)Nc3nn[nH]n3)cc2)C(=O)Nc2ccc(-c3ccccc3)cc2)cc1 (centres undefined)
7.18

====

Measured Ki accompanies every entry in the list below.
assayed-system: Adenylate cyclase
test: In vitro inhibitory activity against glucagon induced human adenylate cyclase
Format: protein assay

Fill in: Ki on Adenylate cyclase, entry CCc1ccc(NC(=O)C(Cc2ccc(C(=O)NCCC(=O)O)cc2)c2ccc(C(C)(C)C)cc2)cc1 (centres undefined)
> 2000 nM

Fill in: Ki on Adenylate cyclase, entry Cc1ccc(N2CCN(C(=O)C(Cc3ccc(C(=O)NCCC(=O)O)cc3)c3ccc(C(C)(C)C)cc3)CC2)cc1 (centres undefined)
> 2000 nM
